# System Under Test: Beta-3 adrenergic receptor (Homo sapiens, UniProt P13945)
# Sequence (P13945 whole entry): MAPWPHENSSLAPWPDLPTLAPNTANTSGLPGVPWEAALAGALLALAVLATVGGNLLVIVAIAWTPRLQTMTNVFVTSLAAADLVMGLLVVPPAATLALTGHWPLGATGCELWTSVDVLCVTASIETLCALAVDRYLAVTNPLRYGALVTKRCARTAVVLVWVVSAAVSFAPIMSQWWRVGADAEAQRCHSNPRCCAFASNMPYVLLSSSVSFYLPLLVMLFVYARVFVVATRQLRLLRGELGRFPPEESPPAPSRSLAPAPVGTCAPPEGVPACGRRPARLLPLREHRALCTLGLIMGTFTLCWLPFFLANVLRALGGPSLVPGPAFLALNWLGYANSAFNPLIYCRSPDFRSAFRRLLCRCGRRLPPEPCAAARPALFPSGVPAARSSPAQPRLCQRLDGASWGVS
# Measurement Protocol: DRUGMATRIX: Adrenergic beta3 radioligand binding (ligand: [125I] Cyanopindolol)
# Format: cell membranes, HEK293, Membrane
# Condition Info: Not Active = under 50% inhibition at 10 µM; read-out: IC50
Measure Name: pIC50
Friendly reminder that pIC50 comes from taking -log10 of the concentration in mol/L.

Use the examples below as a reference point.
Cc1c(O)cccc1C(=O)N[C@@H](CSc1ccccc1)[C@H](O)CN1C[C@H]2CCCC[C@H]2C[C@H]1C(=O)NC(C)(C)C
4.47
Clc1ccc(COC(Cn2ccnc2)c2ccc(Cl)cc2Cl)c(Cl)c1 (centres undefined)
5.26

Annotate the compound CC(C)C[C@H]1C(=O)N2CCC[C@H]2[C@]2(O)O[C@](NC(=O)[C@@H]3C=C4c5cccc6[nH]cc(c56)C[C@H]4N(C)C3)(C(C)C)C(=O)N12 with its measured pIC50.
5.60

Annotate the compound CCOc1nc2cccc(C(=O)O)c2n1Cc1ccc(-c2ccccc2-c2nnn[nH]2)cc1 with its measured pIC50.
5.37
